Target: T1, WWOX WW2 domain (amino acid 57-91) (human, UniProt Q9NZC7 57-91)
T1 chain (looked up): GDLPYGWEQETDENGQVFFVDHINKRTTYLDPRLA
Assay: ITC
ENDPOINT LABEL: Kd

The measured Kd associated with KPGTVLPPPPYRHRN (peptide, UniProt Q15303 1291-1305, looked up) [ErbB4 1291-1305 (PY3) single-motif peptide] reads > 200 µM
